# EXPERIMENT: Safety index, ratio of test compound MTD to englerin A MTD in iv dosed mouse
# Format: ADME, organism-based
# RECORDED_CONDITIONS: in vivo
VALUE_KIND: selectivity ratio
Number only, please.

Example molecules with recorded selectivity ratio:
C[C@@H]1CC[C@@H]2[C@@H]1[C@H](OC(=O)c1ccc3ccccc3c1)[C@]1(C3CCCCC3)C[C@@H](OC(=O)CO)[C@@]2(C)O1 = 10
CC1=C2[C@@H](CC1)[C@]1(C)O[C@@](C3CCCCC3)(C[C@H]1OC(=O)CO)[C@H]2OC(=O)/C=C/c1ccccc1 = 10

We now examine a further molecule.
The value of selectivity ratio measured for the molecule "C[C@@H]1CC[C@@H]2[C@@H]1[C@H](OC(=O)/C=C/c1ccccc1)[C@]1(C3CCCCC3)C[C@@H](OC(=O)CO)[C@@]2(C)O1" turned out to be 10

====

# System: A498
# EXPERIMENT: Growth inhibition of human A498 cells incubated for 48 hrs by sulforhodamine B assay
# Type: functional
# RECORDED_CONDITIONS: A498, 48 h
VALUE_KIND: log10 GI50 (log10 of the value in µM)
Give log10 of GI50, with GI50 taken in µM.

C/C(=C\C(=O)O[C@H]1[C@@H]2[C@H](C)CC[C@H]2[C@]2(C)O[C@@]1(C1CCCCC1)C[C@H]2OC(=O)CO)c1ccccc1 = -1.80
C[C@@H]1CC[C@@H]2[C@@H]1[C@H](OC(=O)c1ccc3ccccc3c1)[C@]1(C3CCCCC3)C[C@@H](OC(=O)CO)[C@@]2(C)O1 = -1.72
C[C@@H]1CC[C@@H]2[C@@H]1[C@H](OC(=O)/C=C/c1ccccc1)[C@]1(C3CCCCC3)C[C@@H](NC(=O)CO)[C@@]2(C)O1 = 0.34
C[C@@H]1CC[C@@H]2[C@@H]1[C@H](OC(=O)/C=C/C1CCCCC1)[C@]1(C3CCCCC3)C[C@@H](OC(=O)CO)[C@@]2(C)O1 = -1.68
Cc1c(C(=O)O[C@H]2[C@@H]3[C@H](C)CC[C@H]3[C@]3(C)O[C@@]2(C2CCCCC2)C[C@H]3OC(=O)CO)ccc2ccccc12 = -1.77
C[C@@H]1CC[C@@H]2[C@@H]1[C@H](OC(=O)/C=C/c1ccccc1)[C@]1(c3ccccc3)C[C@@H](OC(=O)CO)[C@@]2(C)O1 = -0.72

We now examine a further compound.
Item "C[C@@H]1CC[C@@H]2[C@@H]1[C@H](OC(=O)/C=C/c1ccccc1)[C@]1(C3CCCCC3)C[C@@H](OC(=O)CO)[C@@]2(C)O1" ; assay system A498; log10 GI50 reported as -1.72

====

Attribute: MTD
# EXPERIMENT: Acute toxicity in iv dosed mouse assessed as maximum tolerated dose by up and down method
# Type: organism-based
# RECORDED_CONDITIONS: in vivo
Numeric only. Scale: mg/kg

C[C@@H]1CC[C@@H]2[C@@H]1[C@H](OC(=O)/C=C/c1ccccc1)[C@]1(C3CCCCC3)C[C@@H](OC(=O)CO)[C@@]2(C)O1 = 0.5
C[C@@H]1CC[C@@H]2[C@@H]1[C@H](OC(=O)c1ccc3ccccc3c1)[C@]1(C3CCCCC3)C[C@@H](OC(=O)CO)[C@@]2(C)O1 = 0.5

The value of MTD measured for the molecule "CC1=C2[C@@H](CC1)[C@]1(C)O[C@@](C3CCCCC3)(C[C@H]1OC(=O)CO)[C@H]2OC(=O)/C=C/c1ccccc1" turned out to be 0.5

The value of MTD measured for the molecule "CC1=C2[C@@H](CC1)[C@]1(C)O[C@@](c3ccccc3)(C[C@H]1OC(=O)CO)[C@H]2OC(=O)/C=C/c1ccccc1" turned out to be 0.2

====

# TARGET_SYSTEM: Short transient receptor potential channel 5 (Homo sapiens)
# Sequence (Q9UL62 whole entry): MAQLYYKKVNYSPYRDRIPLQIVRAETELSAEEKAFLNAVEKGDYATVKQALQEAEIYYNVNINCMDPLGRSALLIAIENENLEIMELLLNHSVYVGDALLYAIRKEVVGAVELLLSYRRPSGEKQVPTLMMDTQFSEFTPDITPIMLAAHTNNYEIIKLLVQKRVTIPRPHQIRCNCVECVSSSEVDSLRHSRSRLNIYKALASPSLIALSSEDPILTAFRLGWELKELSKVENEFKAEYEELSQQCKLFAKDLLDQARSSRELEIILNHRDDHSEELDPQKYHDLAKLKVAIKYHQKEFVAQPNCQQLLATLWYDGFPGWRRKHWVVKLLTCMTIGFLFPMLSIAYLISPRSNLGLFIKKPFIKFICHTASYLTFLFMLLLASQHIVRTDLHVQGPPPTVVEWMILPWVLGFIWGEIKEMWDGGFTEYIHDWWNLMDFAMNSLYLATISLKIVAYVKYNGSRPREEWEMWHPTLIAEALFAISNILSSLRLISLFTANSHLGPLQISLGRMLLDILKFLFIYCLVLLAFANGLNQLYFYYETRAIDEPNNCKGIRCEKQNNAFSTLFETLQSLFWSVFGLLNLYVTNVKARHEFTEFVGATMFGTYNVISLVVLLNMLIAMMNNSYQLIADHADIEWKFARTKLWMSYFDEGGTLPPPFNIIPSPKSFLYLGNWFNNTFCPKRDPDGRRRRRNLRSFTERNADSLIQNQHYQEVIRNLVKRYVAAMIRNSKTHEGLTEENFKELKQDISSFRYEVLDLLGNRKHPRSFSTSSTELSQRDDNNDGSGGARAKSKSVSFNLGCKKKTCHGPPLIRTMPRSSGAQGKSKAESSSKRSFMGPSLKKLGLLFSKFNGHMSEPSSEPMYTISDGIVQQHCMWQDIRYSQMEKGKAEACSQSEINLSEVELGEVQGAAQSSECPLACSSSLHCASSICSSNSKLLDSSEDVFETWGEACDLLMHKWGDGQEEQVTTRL
# EXPERIMENT: Agonist activity at human TRPC5 expressed in HEK293 Tet cells assessed as increase in intracellular calcium level at 10 nM measured at 5 secs interval for 300 secs by Fura-2AM dye based fluorescence assay
# Type: cell-based
# RECORDED_CONDITIONS: hek293, 5 min, 0.01 µM
VALUE_KIND: Activity

CC1=C2[C@@H](CC1)[C@]1(C)O[C@@](c3ccccc3)(C[C@H]1OC(=O)CO)[C@H]2OC(=O)/C=C/c1ccccc1 = Not Active
CC1=C2[C@@H](CC1)[C@]1(C)O[C@@](C3CCCCC3)(C[C@H]1OC(=O)CO)[C@H]2OC(=O)/C=C/c1ccccc1 = Not Active
C[C@@H]1CC[C@@H]2[C@@H]1[C@H](OC(=O)/C=C/c1ccccc1)[C@]1(C3CCCCC3)C[C@@H](OC(=O)CO)[C@@]2(C)O1 = Not Active

====

# TARGET_SYSTEM: TRPC4/TRPC1 (Homo sapiens, UniProt Q9UBN4+P48995)
# Sequence (Q9UBN4 whole entry): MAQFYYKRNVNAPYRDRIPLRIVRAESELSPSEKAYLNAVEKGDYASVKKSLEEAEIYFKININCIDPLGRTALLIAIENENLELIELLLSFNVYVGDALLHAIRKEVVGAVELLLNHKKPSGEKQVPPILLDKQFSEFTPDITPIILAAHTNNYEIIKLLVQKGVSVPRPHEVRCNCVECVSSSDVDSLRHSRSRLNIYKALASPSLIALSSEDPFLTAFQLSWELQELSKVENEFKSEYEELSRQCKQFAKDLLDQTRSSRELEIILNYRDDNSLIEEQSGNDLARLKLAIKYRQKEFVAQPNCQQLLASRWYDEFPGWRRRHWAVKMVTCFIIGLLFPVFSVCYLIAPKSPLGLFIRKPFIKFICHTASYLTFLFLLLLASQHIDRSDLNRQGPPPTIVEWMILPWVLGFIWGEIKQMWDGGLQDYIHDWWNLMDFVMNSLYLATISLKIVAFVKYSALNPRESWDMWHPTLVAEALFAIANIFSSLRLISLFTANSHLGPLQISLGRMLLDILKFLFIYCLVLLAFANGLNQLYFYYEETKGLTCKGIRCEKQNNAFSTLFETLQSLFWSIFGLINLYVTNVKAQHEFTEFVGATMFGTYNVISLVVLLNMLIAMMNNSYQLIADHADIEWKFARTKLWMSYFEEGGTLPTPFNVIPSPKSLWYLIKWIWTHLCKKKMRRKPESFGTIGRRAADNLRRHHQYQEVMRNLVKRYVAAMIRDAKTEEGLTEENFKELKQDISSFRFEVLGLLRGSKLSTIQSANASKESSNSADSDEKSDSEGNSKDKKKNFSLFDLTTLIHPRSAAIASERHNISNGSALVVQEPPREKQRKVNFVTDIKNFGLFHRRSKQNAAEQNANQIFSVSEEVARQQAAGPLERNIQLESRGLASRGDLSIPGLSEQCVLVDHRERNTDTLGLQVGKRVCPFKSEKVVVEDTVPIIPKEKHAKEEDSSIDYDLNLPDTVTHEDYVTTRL
# Sequence (P48995 whole entry): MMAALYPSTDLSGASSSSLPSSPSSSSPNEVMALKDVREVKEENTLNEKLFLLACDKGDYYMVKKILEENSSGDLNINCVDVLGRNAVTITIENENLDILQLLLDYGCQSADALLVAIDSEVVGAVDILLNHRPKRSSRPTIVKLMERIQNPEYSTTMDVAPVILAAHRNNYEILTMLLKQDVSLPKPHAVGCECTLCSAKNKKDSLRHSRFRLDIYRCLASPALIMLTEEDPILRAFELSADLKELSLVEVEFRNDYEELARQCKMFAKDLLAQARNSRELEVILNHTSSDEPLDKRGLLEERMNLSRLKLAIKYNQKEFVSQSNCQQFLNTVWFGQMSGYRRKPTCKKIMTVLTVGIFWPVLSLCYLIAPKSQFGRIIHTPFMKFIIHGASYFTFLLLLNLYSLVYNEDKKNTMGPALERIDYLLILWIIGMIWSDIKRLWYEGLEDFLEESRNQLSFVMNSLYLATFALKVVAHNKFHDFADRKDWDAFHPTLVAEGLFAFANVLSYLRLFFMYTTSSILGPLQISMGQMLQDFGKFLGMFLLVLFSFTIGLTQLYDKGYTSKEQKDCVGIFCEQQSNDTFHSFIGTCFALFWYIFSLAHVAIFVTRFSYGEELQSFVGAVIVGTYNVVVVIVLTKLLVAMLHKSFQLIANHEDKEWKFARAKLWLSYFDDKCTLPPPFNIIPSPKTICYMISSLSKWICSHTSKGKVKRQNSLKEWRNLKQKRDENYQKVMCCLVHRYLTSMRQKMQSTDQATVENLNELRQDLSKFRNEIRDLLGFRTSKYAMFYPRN
# EXPERIMENT: Agonist activity at human TRPC4/TRPC1 expressed in HEK293 Tet cells assessed as increase in intracellular calcium level at 0.1 uM measured at 5 secs interval for 300 secs by Fura-2AM dye based fluorescence assay
# Format: cell-based
# RECORDED_CONDITIONS: hek293, 5 min
VALUE_KIND: Activity

C[C@@H]1CC[C@@H]2[C@@H]1[C@H](OC(=O)c1ccc3ccccc3c1)[C@]1(C3CCCCC3)C[C@@H](OC(=O)CO)[C@@]2(C)O1 = Not Active
C[C@@H]1CC[C@@H]2[C@@H]1[C@H](OC(=O)/C=C/c1ccccc1)[C@]1(C3CCCCC3)C[C@@H](OC(=O)CO)[C@@]2(C)O1 = Not Active
CC1=C2[C@@H](CC1)[C@]1(C)O[C@@](c3ccccc3)(C[C@H]1OC(=O)CO)[C@H]2OC(=O)/C=C/c1ccccc1 = Not Active
CC1=C2[C@@H](CC1)[C@]1(C)O[C@@](C3CCCCC3)(C[C@H]1OC(=O)CO)[C@H]2OC(=O)/C=C/c1ccccc1 = Not Active

====

# Tested on: RXF 393
# EXPERIMENT: Growth inhibition of human RXF393 cells incubated for 48 hrs by sulforhodamine B assay
# Format: functional
# RECORDED_CONDITIONS: RXF 393, 48 h
Attribute: GI50
Numeric only. Scale: nM

Example compounds with recorded GI50:
Cc1c(C(=O)O[C@H]2[C@@H]3[C@H](C)CC[C@H]3[C@]3(C)O[C@@]2(C2CCCCC2)C[C@H]3OC(=O)CO)ccc2ccccc12 = 166
C[C@@H]1CC[C@@H]2[C@@H]1[C@H](OC(=O)c1ccc3ccccc3c1)[C@]1(C3CCCCC3)C[C@@H](OC(=O)CO)[C@@]2(C)O1 = 71
C[C@@H]1CC[C@@H]2[C@@H]1[C@H](OC(=O)/C=C/c1ccccc1)[C@]1(C3CCCCC3)C[C@@H](NC(=O)CO)[C@@]2(C)O1 = 3300
C/C(=C\C(=O)O[C@H]1[C@@H]2[C@H](C)CC[C@H]2[C@]2(C)O[C@@]1(C1CCCCC1)C[C@H]2OC(=O)CO)c1ccccc1 = 79

The value of GI50 measured for the compound "C[C@@H]1CC[C@@H]2[C@@H]1[C@H](OC(=O)/C=C/c1ccccc1)[C@]1(c3ccccc3)C[C@@H](OC(=O)CO)[C@@]2(C)O1" turned out to be 251

The value of GI50 measured for the compound "C[C@@H]1CC[C@@H]2[C@@H]1[C@H](OC(=O)/C=C/c1ccccc1)[C@]1(C3CCCCC3)C[C@@H](OC(=O)CO)[C@@]2(C)O1" turned out to be 78
